Where do the numbers come from? From ChEMBL document CHEMBL1136531.

molecular target: UniProtKB Q9ET64
Sequence (Q9ET64 whole entry): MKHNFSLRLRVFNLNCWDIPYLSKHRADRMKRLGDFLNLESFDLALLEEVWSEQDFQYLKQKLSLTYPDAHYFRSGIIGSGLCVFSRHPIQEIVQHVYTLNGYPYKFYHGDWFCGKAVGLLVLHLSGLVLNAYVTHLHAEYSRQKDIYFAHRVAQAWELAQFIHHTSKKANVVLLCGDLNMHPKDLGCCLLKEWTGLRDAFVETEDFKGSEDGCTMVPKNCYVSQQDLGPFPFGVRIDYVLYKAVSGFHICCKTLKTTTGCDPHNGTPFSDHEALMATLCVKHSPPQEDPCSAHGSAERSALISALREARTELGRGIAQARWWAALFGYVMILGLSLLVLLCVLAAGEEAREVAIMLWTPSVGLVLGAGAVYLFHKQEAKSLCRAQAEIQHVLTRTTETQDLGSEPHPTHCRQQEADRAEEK
pIC50: −log10 of the molar value.
Record Condition met whenever pIC50 is at 5 or higher; record Condition not met when lower.

>>> category_label("CCCCCCCCCCCCC/C=C/[C@@H](O)[C@H](COC(=O)NCCN(C(C)C)C(C)C)NC(=O)C(C)(C)C")
"Condition not met"
>>> category_label("CCCCCCCCCCCCC/C=C/[C@@H](O)[C@H](COC(=O)NCc1cccnc1)NC(=O)C(C)(C)C")
"Condition met"
>>> category_label("CCCCCCCCCCCCC/C=C/[C@@H](O)[C@H](COC(=O)NCc1ccncc1)NC(=O)OC(C)(C)C")
"Condition not met"
>>> category_label("CCCCCCCCCCCCC/C=C/[C@@H](O)[C@H](COC(=O)NCCN(C)C)NC(=O)C(C)(C)C")
"Condition met"
>>> category_label("CCCCCCCCCCCCC/C=C/[C@@H](O)[C@H](COC(=O)NCc1ccccn1)NC(=O)C(C)(C)C")
"Condition met"
>>> category_label("CCCCCCCCCCCCC/C=C/[C@@H](O)[C@H](COC(=O)NCc1ccncc1)NC(C)=O")
"Condition not met"
